Target: UniProt:O42275
Assay: Inhibition of Electrophorus electricus (electric eel) acetylcholinesterase (AChE) using […] as substrate by Ellman method
endpoint name: IC50 (µM)
Provide the reading as a plain figure in µM.

Q) Write IC50 of COc1ccc(Cc2nccc3cc(OC)c(OC)cc23)cc1OC [PAPAVERINE] ; system used: UniProt:O42275
A) 24.3

Q) Supply IC50 measured with UniProt:O42275 for "COc1ccc(CC2=NCCc3cc(OC)c(OC)cc32)cc1OC" .
A) 7

Q) Answer with IC50 of COc1ccc(C(O)c2nccc3cc(OC)c(OC)cc23)cc1OC (stereo not drawn) measured for UniProt:O42275.
A) 10.7

###

Answer each item with its documented inhibition.
Biological target: UniProt O42275
Test: Inhibition of Electrophorus electricus (electric eel) acetylcholinesterase (AChE) using […] as substrate at 10 '-5 M by Ellman method
# number only, unit % dropped from output

Q) Send back UniProt O42275 inhibition of "COc1ccc(C(=O)c2nccc3cc(OC)c(OC)cc23)cc1OC" only.
A) 2.3

Q) // fetch inhibition for COc1ccc(CC2NCCc3cc(OC)c(OC)cc32)cc1OC (centres undefined) ; system: UniProt O42275
A) 9

Q) Give reported inhibition for "COc1ccc(CCNC(=O)Cc2ccc(OC)c(OC)c2)cc1OC" (UniProt O42275)
A) 5.9

Q) For UniProt O42275, give inhibition of the listed compound: "COc1ccc(CC2=NCCc3cc(OC)c(OC)cc32)cc1OC"
A) 53
